# Test system: Escherichia coli TOP10
# procedure-text: shrunken log2 fold change of peptide-encoding DNA abundance (4.5 h post-induction vs induction); higher = less antimicrobial activity (less host growth inhibition)
# condition-set: time post-induction: 4.5 h; library: site-saturation at positions 5, 18, 19, 20
# key: entry, value: shrunken log2 fold change
readout-type: shrunken log2 fold change

>  <polymer-sequence>
RRIRKRPPRLPRPRPRPYQKPRP

>  <readout-type>
shrunken log2 fold change

>  <numeric-readout>
-0.00762

$$$$
>  <polymer-sequence>
RRIRWRPPRLPRPRPRPSPIPRP

>  <readout-type>
shrunken log2 fold change

>  <numeric-readout>
-0.0871

$$$$
>  <polymer-sequence>
RRIRFRPPRLPRPRPRPAHPPRP

>  <readout-type>
shrunken log2 fold change

>  <numeric-readout>
0.267

$$$$
>  <polymer-sequence>
RRIRVRPPRLPRPRPRPCDKPRP

>  <readout-type>
shrunken log2 fold change

>  <numeric-readout>
-0.323

$$$$
>  <polymer-sequence>
RRIRVRPPRLPRPRPRPQWVPRP

>  <readout-type>
shrunken log2 fold change

>  <numeric-readout>
-0.222

$$$$
>  <polymer-sequence>
RRIRFRPPRLPRPRPRPRCTPRP

>  <readout-type>
shrunken log2 fold change

>  <numeric-readout>
0.0551

$$$$
>  <polymer-sequence>
RRIRSRPPRLPRPRPRPCQTPRP

>  <readout-type>
shrunken log2 fold change

>  <numeric-readout>
0.131

$$$$
>  <polymer-sequence>
RRIRFRPPRLPRPRPRPECCPRP

>  <readout-type>
shrunken log2 fold change

>  <numeric-readout>
0.225

$$$$

* * *

Entries and their measured shrunken log2 fold change follow.
# Test system: Escherichia coli TOP10
# procedure-text: shrunken log2 fold change of peptide-encoding DNA abundance (4.5 h post-induction vs induction); higher = less antimicrobial activity (less host growth inhibition)
# condition-set: time post-induction: 4.5 h; library: site-saturation at positions 5, 18, 19, 20

>  <polymer-sequence>
RRIRERPPRLPRPRPRPGCDPRP

>  <measured-target>
Escherichia coli TOP10

>  <shrunken log2 fold change>
0.0125

$$$$
>  <polymer-sequence>
RRIRLRPPRLPRPRPRPTVTPRP

>  <measured-target>
Escherichia coli TOP10

>  <shrunken log2 fold change>
-0.0848

$$$$
>  <polymer-sequence>
RRIRLRPPRLPRPRPRPNHCPRP

>  <measured-target>
Escherichia coli TOP10

>  <shrunken log2 fold change>
-0.132

$$$$
>  <polymer-sequence>
RRIRHRPPRLPRPRPRPADTPRP

>  <measured-target>
Escherichia coli TOP10

>  <shrunken log2 fold change>
-0.406

$$$$
>  <polymer-sequence>
RRIRVRPPRLPRPRPRPSCPPRP

>  <measured-target>
Escherichia coli TOP10

>  <shrunken log2 fold change>
-0.245

$$$$
>  <polymer-sequence>
RRIRVRPPRLPRPRPRPLVCPRP

>  <measured-target>
Escherichia coli TOP10

>  <shrunken log2 fold change>
-0.253

$$$$
>  <polymer-sequence>
RRIRIRPPRLPRPRPRPAYFPRP

>  <measured-target>
Escherichia coli TOP10

>  <shrunken log2 fold change>
-0.411

$$$$
>  <polymer-sequence>
RRIRMRPPRLPRPRPRPQVTPRP

>  <measured-target>
Escherichia coli TOP10

>  <shrunken log2 fold change>
-0.116

$$$$

* * *

# System: Escherichia coli TOP10
# procedure-text: shrunken log2 fold change of peptide-encoding DNA abundance (4.5 h post-induction vs induction); higher = less antimicrobial activity (less host growth inhibition)
# condition-set: time post-induction: 4.5 h; library: site-saturation at positions 5, 18, 19, 20
Cut-off -0.2 on shrunken log2 fold change, inclusive. At or above means yes; below means no.

>  <polymer-sequence>
RRIRCRPPRLPRPRPRPIPFPRP

>  <assigned-label>
no

$$$$
>  <polymer-sequence>
RRIRLRPPRLPRPRPRPGLYPRP

>  <assigned-label>
no

$$$$
>  <polymer-sequence>
RRIRLRPPRLPRPRPRPWPPPRP

>  <assigned-label>
yes

$$$$
>  <polymer-sequence>
RRIRNRPPRLPRPRPRPEQNPRP

>  <assigned-label>
no

$$$$
>  <polymer-sequence>
RRIRRRPPRLPRPRPRPKPTPRP

>  <assigned-label>
yes

$$$$
>  <polymer-sequence>
RRIRHRPPRLPRPRPRPTWNPRP

>  <assigned-label>
no

$$$$
>  <polymer-sequence>
RRIRHRPPRLPRPRPRPFKMPRP

>  <assigned-label>
no

$$$$
>  <polymer-sequence>
RRIRMRPPRLPRPRPRPASYPRP

>  <assigned-label>
yes

$$$$
>  <polymer-sequence>
RRIRPRPPRLPRPRPRPFFGPRP

>  <assigned-label>
yes

$$$$
>  <polymer-sequence>
RRIRNRPPRLPRPRPRPHKLPRP

>  <assigned-label>
no

$$$$
>  <polymer-sequence>
RRIRMRPPRLPRPRPRPDIEPRP

>  <assigned-label>
yes

$$$$
>  <polymer-sequence>
RRIRYRPPRLPRPRPRPVNWPRP

>  <assigned-label>
yes

$$$$
>  <polymer-sequence>
RRIRLRPPRLPRPRPRPHNFPRP

>  <assigned-label>
yes

$$$$
>  <polymer-sequence>
RRIRMRPPRLPRPRPRPRMIPRP

>  <assigned-label>
yes

$$$$
>  <polymer-sequence>
RRIRRRPPRLPRPRPRPTQPPRP

>  <assigned-label>
yes

$$$$
>  <polymer-sequence>
RRIRARPPRLPRPRPRPYVWPRP

>  <assigned-label>
yes

$$$$
>  <polymer-sequence>
RRIRPRPPRLPRPRPRPVEHPRP

>  <assigned-label>
yes

$$$$
>  <polymer-sequence>
RRIRDRPPRLPRPRPRPEQTPRP

>  <assigned-label>
yes

$$$$
>  <polymer-sequence>
RRIRARPPRLPRPRPRPVWQPRP

>  <assigned-label>
yes

$$$$
>  <polymer-sequence>
RRIRCRPPRLPRPRPRPNDIPRP

>  <assigned-label>
no

$$$$
>  <polymer-sequence>
RRIRQRPPRLPRPRPRPNKTPRP

>  <assigned-label>
yes

$$$$
>  <polymer-sequence>
RRIRVRPPRLPRPRPRPTERPRP

>  <assigned-label>
yes

$$$$
>  <polymer-sequence>
RRIRTRPPRLPRPRPRPYHFPRP

>  <assigned-label>
no

$$$$
>  <polymer-sequence>
RRIRFRPPRLPRPRPRPCYSPRP

>  <assigned-label>
yes

$$$$
>  <polymer-sequence>
RRIRPRPPRLPRPRPRPNVMPRP

>  <assigned-label>
no

$$$$
>  <polymer-sequence>
RRIRRRPPRLPRPRPRPYMEPRP

>  <assigned-label>
yes

$$$$
>  <polymer-sequence>
RRIRYRPPRLPRPRPRPHVVPRP

>  <assigned-label>
no

$$$$
>  <polymer-sequence>
RRIRDRPPRLPRPRPRPSKMPRP

>  <assigned-label>
yes

$$$$
>  <polymer-sequence>
RRIRDRPPRLPRPRPRPLKQPRP

>  <assigned-label>
yes

$$$$
>  <polymer-sequence>
RRIRTRPPRLPRPRPRPEHAPRP

>  <assigned-label>
yes

$$$$
>  <polymer-sequence>
RRIRFRPPRLPRPRPRPSHQPRP

>  <assigned-label>
no

$$$$

* * *

Examples of sequences with documented shrunken log2 fold change follow.
# System: Escherichia coli TOP10
# procedure-text: shrunken log2 fold change of peptide-encoding DNA abundance (4.5 h post-induction vs induction); higher = less antimicrobial activity (less host growth inhibition)
# condition-set: time post-induction: 4.5 h; library: site-saturation at positions 5, 18, 19, 20
readout-type: shrunken log2 fold change

>  <polymer-sequence>
RRIRMRPPRLPRPRPRPSKEPRP

>  <readout-type>
shrunken log2 fold change

>  <numeric-readout>
0.203

$$$$
>  <polymer-sequence>
RRIRGRPPRLPRPRPRPFLSPRP

>  <readout-type>
shrunken log2 fold change

>  <numeric-readout>
0.162

$$$$
>  <polymer-sequence>
RRIRERPPRLPRPRPRPEPRPRP

>  <readout-type>
shrunken log2 fold change

>  <numeric-readout>
0.379

$$$$
>  <polymer-sequence>
RRIRDRPPRLPRPRPRPCKYPRP

>  <readout-type>
shrunken log2 fold change

>  <numeric-readout>
0.0244

$$$$
>  <polymer-sequence>
RRIRARPPRLPRPRPRPPTWPRP

>  <readout-type>
shrunken log2 fold change

>  <numeric-readout>
1.67

$$$$
>  <polymer-sequence>
RRIRDRPPRLPRPRPRPPDRPRP

>  <readout-type>
shrunken log2 fold change

>  <numeric-readout>
0.468

$$$$
>  <polymer-sequence>
RRIRRRPPRLPRPRPRPHCMPRP

>  <readout-type>
shrunken log2 fold change

>  <numeric-readout>
-0.329

$$$$
>  <polymer-sequence>
RRIRRRPPRLPRPRPRPAADPRP

>  <readout-type>
shrunken log2 fold change

>  <numeric-readout>
0.594

$$$$

* * *

The sequences listed here are annotated with their shrunken log2 fold change.
# System: Escherichia coli TOP10;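 note: peptides expressed intracellularly from a pBAD plasmid library in pooled LB shake-flask culture, induced with 0.3% L-arabinose, DNA abundance read by NGS, three biological replicates, DESeq2 with apeglm shrinkage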
# procedure-text: shrunken log2 fold change of peptide-encoding DNA abundance (4.5 h post-induction vs induction); higher = less antimicrobial activity (less host growth inhibition)
# condition-set: time post-induction: 4.5 h; library: site-saturation at positions 5, 18, 19, 20

>  <polymer-sequence>
RRIRKRPPRLPRPRPRPGTQPRP

>  <shrunken log2 fold change>
0.114

$$$$
>  <polymer-sequence>
RRIRIRPPRLPRPRPRPQMWPRP

>  <shrunken log2 fold change>
-0.171

$$$$
>  <polymer-sequence>
RRIRGRPPRLPRPRPRPITLPRP

>  <shrunken log2 fold change>
0.217

$$$$
>  <polymer-sequence>
RRIRVRPPRLPRPRPRPFKLPRP

>  <shrunken log2 fold change>
-0.277

$$$$
>  <polymer-sequence>
RRIRRRPPRLPRPRPRPQFYPRP

>  <shrunken log2 fold change>
-0.41

$$$$
>  <polymer-sequence>
RRIRVRPPRLPRPRPRPDLDPRP

>  <shrunken log2 fold change>
0.156

$$$$
>  <polymer-sequence>
RRIRVRPPRLPRPRPRPAKAPRP

>  <shrunken log2 fold change>
0.0673

$$$$
>  <polymer-sequence>
RRIRFRPPRLPRPRPRPVIFPRP

>  <shrunken log2 fold change>
0.774

$$$$
>  <polymer-sequence>
RRIRLRPPRLPRPRPRPDSWPRP

>  <shrunken log2 fold change>
-0.139

$$$$
>  <polymer-sequence>
RRIRVRPPRLPRPRPRPLVRPRP

>  <shrunken log2 fold change>
0.0251

$$$$
>  <polymer-sequence>
RRIRYRPPRLPRPRPRPYPWPRP

>  <shrunken log2 fold change>
0.0116

$$$$
>  <polymer-sequence>
RRIRFRPPRLPRPRPRPFQDPRP

>  <shrunken log2 fold change>
0.0171

$$$$
>  <polymer-sequence>
RRIRARPPRLPRPRPRPPWKPRP

>  <shrunken log2 fold change>
0.429

$$$$
>  <polymer-sequence>
RRIRMRPPRLPRPRPRPCSFPRP

>  <shrunken log2 fold change>
0.0622

$$$$
>  <polymer-sequence>
RRIRCRPPRLPRPRPRPPFCPRP

>  <shrunken log2 fold change>
0.291

$$$$
